Assay: Solubility of 20 mg compound in aqueous buffer at pH 7.3 and 37 degree Celsius after 13.5 hr
Type: physicochemical
Settings: read-out: Concentration
Measurement Label: solubility at 13.5 h (mg/mL)
Entry rule: numbers only, all in mg/mL.

{"columns": ["Compound", "Measurement Label", "Measure Unit", "Test Result"],
 "data": [
  ["CCC(=O)O[C@H]1C(n2cnc3c(N)ncnc32)O[C@H](CO)[C@@H]1O (some centres not stated)", "solubility at 13.5 h", "mg/mL", 13]
]}

Now, please, on to the next compound.
Report solubility at 13.5 h, nothing else, for this compound: CCCCC(=O)O[C@H]1C(n2cnc3c(N)ncnc32)O[C@H](CO)[C@@H]1O (some centres not stated)
11

====

Recorded VR values for a group of compounds are listed next.
System: Human alphaherpesvirus 1
Test: virus rating as the measure of the activity against herpes simplex virus type 1(strain 377)
Type: functional
// print number alone

{"columns": ["Compound", "Test Result"],
 "data": [
  ["CCCC(=O)O[C@H]1C(n2cnc3c(N)ncnc32)O[C@H](CO)[C@@H]1O (stereo not given in full)", 1.5]
]}

Report value: VR, system: Human alphaherpesvirus 1, compound: CCC(=O)O[C@H]1C(n2cnc3c(N)ncnc32)O[C@H](CO)[C@@H]1O (stereo not given in full)
1.9

Report value: VR, system: Human alphaherpesvirus 1, compound: Nc1ncnc2c1ncn2[C@@H]1O[C@H](CO)[C@@H](O)[C@@H]1O [VIDARABINE]
2

Report value: VR, system: Human alphaherpesvirus 1, compound: CC(=O)O[C@H]1C(n2cnc3c(N)ncnc32)O[C@H](CO)[C@@H]1O (stereo not given in full)
2.3

Report value: VR, system: Human alphaherpesvirus 1, compound: CCCCC(=O)O[C@H]1C(n2cnc3c(N)ncnc32)O[C@H](CO)[C@@H]1O (stereo not given in full)
2.6

====

Assay: Solubility of 20 mg compound in aqueous buffer at pH 7.3 and 37 degree Celsius after 4.0 hr
Format: physicochemical
Settings: read-out: Concentration
Measurement Label: solubility at 4 h (mg/mL)
Entry rule: numbers only, all in mg/mL.

{"columns": ["Molecule", "Measure Unit", "solubility at 4 h"],
 "data": [
  ["CCC(=O)O[C@H]1C(n2cnc3c(N)ncnc32)O[C@H](CO)[C@@H]1O (some centres not stated)", "mg/mL", 11.1]
]}

Now, please, on to the next molecule.
Report solubility at 4 h, nothing else, for this molecule: CCCCC(=O)O[C@H]1C(n2cnc3c(N)ncnc32)O[C@H](CO)[C@@H]1O (some centres not stated)
9.28
